molecular target: Estrogen Receptor (ERα) in MCF-7 human ductal carcinoma breast cell line (Homo sapiens); construct: endogenous in cells; host or cells: MCF-7; assay: MCF-7 ER degradation assay (cell based immuno-fluorescence); details: MCF-7 cells, 18-22 hours incubation, 50% reduction of ERα expression; single experiment or average of two or more; read-out: MCF-7 ER degradation IC50
Sequence (P03372 whole entry): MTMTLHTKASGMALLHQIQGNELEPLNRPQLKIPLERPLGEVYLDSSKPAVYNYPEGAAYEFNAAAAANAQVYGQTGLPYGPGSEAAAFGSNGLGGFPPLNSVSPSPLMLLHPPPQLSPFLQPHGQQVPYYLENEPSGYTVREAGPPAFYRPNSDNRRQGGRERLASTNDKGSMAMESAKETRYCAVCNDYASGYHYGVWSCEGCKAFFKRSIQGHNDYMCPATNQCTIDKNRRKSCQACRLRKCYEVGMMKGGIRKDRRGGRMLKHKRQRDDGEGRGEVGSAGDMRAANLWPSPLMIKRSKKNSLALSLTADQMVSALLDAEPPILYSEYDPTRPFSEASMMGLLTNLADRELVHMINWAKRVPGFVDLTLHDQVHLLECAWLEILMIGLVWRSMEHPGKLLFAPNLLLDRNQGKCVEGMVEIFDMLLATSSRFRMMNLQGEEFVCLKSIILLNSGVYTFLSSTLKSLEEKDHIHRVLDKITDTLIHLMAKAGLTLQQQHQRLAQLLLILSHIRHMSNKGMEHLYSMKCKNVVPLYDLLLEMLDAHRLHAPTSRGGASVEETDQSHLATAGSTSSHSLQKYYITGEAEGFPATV
Known DC50 of a selection of compounds

- CHEMICAL STRING: "Cc1ncsc1-c1ccc([C@H](C)NC(=O)[C@@H]2C[C@@H](O)CN2C(=O)[C@@H](NC(=O)COCCCCCOc2cc(F)c([C@@H]3c4[nH]c5ccccc5c4C[C@@H](C)N3CC(C)(C)F)c(F)c2)C(C)(C)C)cc1"
  DC50: "0.8 nM"
- CHEMICAL STRING: "Cc1ncsc1-c1ccc(CNC(=O)[C@@H]2C[C@@H](O)CN2C(=O)[C@@H](NC(=O)COc2cccc(COc3cc(F)c([C@@H]4c5[nH]c6ccccc6c5C[C@@H](C)N4CC(C)(C)F)c(F)c3)c2)C(C)(C)C)cc1"
  DC50: "1.7 nM"
- CHEMICAL STRING: "Cc1ncsc1-c1ccc(CNC(=O)[C@@H]2C[C@@H](O)CN2C(=O)[C@@H](NC(=O)COCCOCCOCCOc2cc(F)c([C@@H]3c4[nH]c5ccccc5c4C[C@@H](C)N3CC(F)(F)CO)c(F)c2)C(C)(C)C)cc1"
  DC50: "0.5 nM"
- CHEMICAL STRING: "Cc1ncsc1-c1ccc(CNC(=O)[C@@H]2C[C@@H](O)CN2C(=O)[C@@H](NC(=O)CCCCCCCCCCOc2cc(F)c([C@@H]3c4[nH]c5ccccc5c4C[C@@H](C)N3CC(C)(C)F)c(F)c2)C(C)(C)C)cc1"
  DC50: "13 nM"

Just for reference, patent US10519152B2 is where these values come from.
